- EXPERIMENTAL SYSTEM: human CD33 N20G (human, UniProt P20138 18-364)
- Sequence (P20138 18-364 N20G limits assumed): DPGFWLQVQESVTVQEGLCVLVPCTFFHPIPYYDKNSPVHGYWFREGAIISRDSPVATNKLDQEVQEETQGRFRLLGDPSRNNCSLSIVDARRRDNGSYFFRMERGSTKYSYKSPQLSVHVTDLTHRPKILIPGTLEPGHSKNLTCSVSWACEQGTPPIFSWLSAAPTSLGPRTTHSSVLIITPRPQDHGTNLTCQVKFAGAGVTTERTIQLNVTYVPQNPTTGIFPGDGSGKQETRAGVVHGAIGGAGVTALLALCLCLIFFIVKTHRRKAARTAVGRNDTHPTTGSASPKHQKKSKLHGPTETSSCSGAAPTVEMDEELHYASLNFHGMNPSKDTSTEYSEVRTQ
- ASSAY SUMMARY: flow cytometry, mutant on cells, IgG
READOUT LABEL: Mean % WT Binding (% WT binding)

>>> result_value("Refmab #1 (antibody, human IgG1, V domains shown, Tested in IgG format; human IgG1 (Absolute Antibody hP67.6, Cat. No. Ab00283-10.0); also called hP67.6) VH: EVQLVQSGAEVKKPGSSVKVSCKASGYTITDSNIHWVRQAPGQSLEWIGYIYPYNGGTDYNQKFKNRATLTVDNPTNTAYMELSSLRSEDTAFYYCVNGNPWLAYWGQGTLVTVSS VL: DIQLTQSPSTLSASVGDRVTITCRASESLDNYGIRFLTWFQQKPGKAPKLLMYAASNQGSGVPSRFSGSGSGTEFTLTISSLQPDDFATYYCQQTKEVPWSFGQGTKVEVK")
5.1
>>> result_value("Refmab #4 (antibody, human IgG1, V domains shown, Tested in IgG format; human IgG1 Fc silent (PG-LALA)) VH: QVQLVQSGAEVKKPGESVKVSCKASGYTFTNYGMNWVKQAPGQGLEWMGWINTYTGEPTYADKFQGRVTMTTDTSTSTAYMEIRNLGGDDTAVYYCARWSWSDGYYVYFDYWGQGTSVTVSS VL: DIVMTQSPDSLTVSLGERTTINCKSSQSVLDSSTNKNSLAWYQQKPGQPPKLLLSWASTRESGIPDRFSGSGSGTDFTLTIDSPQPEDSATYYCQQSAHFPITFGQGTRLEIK")
103
>>> result_value("Refmab #3 (antibody, human IgG1, V domains shown, Tested in IgG format; human IgG1 Fc silent (PG-LALA)) VH: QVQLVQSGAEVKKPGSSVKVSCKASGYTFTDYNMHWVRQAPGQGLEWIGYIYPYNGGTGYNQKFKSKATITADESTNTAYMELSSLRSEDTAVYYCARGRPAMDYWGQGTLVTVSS VL: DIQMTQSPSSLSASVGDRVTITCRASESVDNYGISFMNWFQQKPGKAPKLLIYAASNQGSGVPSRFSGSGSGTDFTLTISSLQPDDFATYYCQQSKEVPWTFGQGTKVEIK")
3.6
>>> result_value("Refmab #2 (antibody, human IgG1, V domains shown, Tested in IgG format; human IgG1 Fc silent (PG-LALA)) VH: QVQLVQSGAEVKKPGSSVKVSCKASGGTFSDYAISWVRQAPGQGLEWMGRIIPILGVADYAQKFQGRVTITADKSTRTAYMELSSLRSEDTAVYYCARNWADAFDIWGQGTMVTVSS VL: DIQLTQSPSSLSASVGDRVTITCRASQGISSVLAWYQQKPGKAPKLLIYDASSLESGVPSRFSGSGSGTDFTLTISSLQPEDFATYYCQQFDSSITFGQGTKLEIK")
105
